Answer each item with its documented one-nucleolus phenotype percent effect.
# Tested on: MCF10A
# methodDescription: one-nucleolus phenotype percent effect (relative to siNT 0% and siNOL11 100%); higher = more cells with one nucleolus (ribosome biogenesis inhibition)
# assayConditions: 20 nM; 72 h
Answers are plain numbers, in %.

UUCUCGAGGAAAGAAGCACUUUC [hsa-miR-516a-5p]
-19.5
UGGGGCUCAGCGAGUUU [hsa-miR-4283]
24.3
CAAAAACCACAGUUUCUUUUGC [hsa-miR-548d-3p]
-0.45
UCUCUGGUCUUUCCUUGACAG [hsa-miR-6764-3p]
0.623
UGUGGGUGGGAAGGACUGGAUU [hsa-miR-6748-5p]
30.1

Now consider the entry below.
Given the sequence ACCGUCUCUUCUGUUCCCCAG [hsa-miR-6827-3p] , what is its reported one-nucleolus phenotype percent effect?
16.9

====

# System: MCF10A
# methodDescription: percent viability (nuclei count relative to siNT); higher = more viable cells
# assayConditions: 20 nM; 72 h
property: percent viability (%)
Answers are plain numbers, in %.

Here's what some known entries look like.
ACCUGUCUGUGGAAAGGAGCUA [hsa-miR-4421]
30.7
AACGCCAUUAUCACACUAAAUA [hsa-miR-122-3p]
131
CAAAAGCAAUCGCGGUUUUUGC [hsa-miR-548e-5p]
60.8
AUCAUGAUGGGCUCCUCGGUGU [hsa-miR-433]
63.2
UCCCUCCUUCUGUCCCCACAG [hsa-miR-4667-3p]
71.8

Now consider the entry below.
Given the sequence AGGCAGGGGCUGGUGCUGGGCGGG [hsa-miR-4763-3p] , what is its reported percent viability?
52.2

====

# Test system: MCF10A
# methodDescription: 5+ nucleoli phenotype percent effect (relative to siNT 0% and siKIF11 100%); higher = more cells with five or more nucleoli
# assayConditions: 20 nM; 72 h
Answer each item with its documented 5+ nucleoli phenotype percent effect.
Numbers only, in %.

CACUUAGCAGGUUGUAUUAUAU [hsa-miR-374c-3p]
0.0114
AGCUGUAAUUAGUCAGUUUUCU [hsa-miR-1537-5p]
31.8
CGCCGCGCGCAUCGGCUCAGC [hsa-miR-6869-3p]
-29.2
UGAGACAGGCUUAUGCUGCUAU [hsa-miR-4524a-3p]
8.73
UAGAGGAAGCUGUGGAGAGA [hsa-miR-3125]
-14.5

Now consider the entry below.
I'm curious: which 5+ nucleoli phenotype percent effect was measured for AGGCAUUGACUUCUCACUAGCU [hsa-miR-1256] tested on MCF10A?
2.63

====

# System: MCF10A
# methodDescription: percent viability (nuclei count relative to siNT); higher = more viable cells
# assayConditions: 20 nM; 72 h
property: percent viability (%)
Answers are plain numbers, in %.

AAUAGCUCAGAAUGUCAGUUCUG [hsa-miR-7705]
71.2
UCCUCUUCUCCCUCCUCCCAG [hsa-miR-877-3p]
59
AUGUAUGUGUGCAUGUGCAUG [hsa-miR-297]
116
ACUUUAACAUGGAGGCACUUGC [hsa-miR-302d-5p]
92.5

Batch of 2 sequences: report percent viability for each.
1. UGAUCUCACCGCUGCCUCCUUC [hsa-miR-4695-3p]
2. UUGUGAAGAAAGAAAUUCUUA [hsa-miR-3611]

1: 93.9; 2: 53.1
